Assay: physchem
MEASURED METRIC: solubility at 24 h (µg/mL)
# value in µg/mL; strip the unit string

Item `C=C(C)[C@@H]1CCC(C)=C[C@H]1c1c(O)cc(CCCCC)cc1O` : provide solubility at 24 h
2240
